# system under test: Adenosine kinase (Homo sapiens)
# Sequence (P55263 whole entry): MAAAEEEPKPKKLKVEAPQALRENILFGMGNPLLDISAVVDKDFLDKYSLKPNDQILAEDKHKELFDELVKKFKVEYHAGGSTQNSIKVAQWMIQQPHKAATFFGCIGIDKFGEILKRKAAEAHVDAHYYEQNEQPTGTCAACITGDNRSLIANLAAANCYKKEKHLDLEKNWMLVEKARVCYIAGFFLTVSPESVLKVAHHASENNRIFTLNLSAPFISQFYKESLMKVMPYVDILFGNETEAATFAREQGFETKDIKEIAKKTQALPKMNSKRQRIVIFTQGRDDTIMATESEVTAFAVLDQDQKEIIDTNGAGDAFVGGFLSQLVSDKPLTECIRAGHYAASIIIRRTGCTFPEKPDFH
# assay comment: Inhibitory activity against recombinant human adenosine kinase
pIC50: −log10 of the molar value.
metric name: pIC50

Below are worked cases with known answers.
*Q* Specify pIC50 for O=C(CNc1ncnc2c1c(-c1ccccc1)cn2COCCO)NC1CC1 and stop.
*A* 5.77

*Q* Supply recorded pIC50 for C[C@H]1O[C@@H](n2cc(-c3ccccc3)c3c(NCC(=O)NCCCO)ncnc32)[C@H](O)[C@@H]1O here.
*A* 7.80

*Q* Using the record for C[C@H]1O[C@@H](n2cc(-c3ccccc3)c3c(NC4CC4)ncnc32)[C@H](O)[C@@H]1O , state its measured pIC50.
*A* 6.42

*Q* Give the value of pIC50 reported for the following: O=C(CNc1ncnc2c1c(-c1ccccc1)nn2[C@@H]1O[C@H](CO)[C@@H](O)[C@H]1O)Nc1ccccc1
*A* 9.05

*Q* Identify measured pIC50 corresponding to C[C@H]1O[C@@H](n2cc(-c3ccccc3)c3c(NCC(=O)NCCCN(C)C)ncnc32)[C@H](O)[C@@H]1O
*A* 6.84

(I) CC(C)CNC(=O)CNc1ncnc2c1c(-c1ccccc1)cn2[C@@H]1O[C@H](C)[C@@H](O)[C@H]1O
(II) CCCNc1ncnc2c1c(-c1ccccc1)cn2[C@@H]1O[C@H](C)[C@@H](O)[C@H]1O
(III) O=C(CNc1ncnc2c1c(-c1ccccc1)cn2[C@@H]1OC[C@@H](O)[C@H]1O)Nc1ccccc1
(IV) COCCCNC(=O)CNc1ncnc2c1c(-c1ccccc1)cn2[C@@H]1O[C@H](C)[C@@H](O)[C@H]1O
*Q* // ascending sort on recorded pIC50 // ordering of labels required in reply
*A* II, I, IV, III

(1) CC(C)CNc1ncnc2c1c(-c1ccccc1)cn2[C@@H]1O[C@H](C)[C@@H](O)[C@H]1O
(2) CCCOC(=O)Nc1ncnc2c1c(-c1ccccc1)cn2[C@@H]1O[C@H](C)[C@@H](O)[C@H]1O
(3) C[C@H]1O[C@@H](n2cc(-c3ccccc3)c3c(NC/C(S)=N\C4CC4)ncnc32)[C@H](O)[C@@H]1O
(4) C[C@H]1O[C@@H](n2cc(-c3ccccc3)c3c(NCC(=O)NC4CCC4)ncnc32)[C@H](O)[C@@H]1O
(5) C[C@H]1O[C@@H](n2cc(-c3ccccc3)c3c(NCCC(N)=O)ncnc32)[C@H](O)[C@@H]1O
*Q* Put the entries in order of pIC50, starting with the largest number. Give the order by naming the labels one after another as requested.
*A* 3, 4, 2, 1, 5
